This collection of values is drawn from paper PMC10056986.

- SYSTEM_TESTED: Aurora A (Homo sapiens)
- Sequence (O14965 1-403): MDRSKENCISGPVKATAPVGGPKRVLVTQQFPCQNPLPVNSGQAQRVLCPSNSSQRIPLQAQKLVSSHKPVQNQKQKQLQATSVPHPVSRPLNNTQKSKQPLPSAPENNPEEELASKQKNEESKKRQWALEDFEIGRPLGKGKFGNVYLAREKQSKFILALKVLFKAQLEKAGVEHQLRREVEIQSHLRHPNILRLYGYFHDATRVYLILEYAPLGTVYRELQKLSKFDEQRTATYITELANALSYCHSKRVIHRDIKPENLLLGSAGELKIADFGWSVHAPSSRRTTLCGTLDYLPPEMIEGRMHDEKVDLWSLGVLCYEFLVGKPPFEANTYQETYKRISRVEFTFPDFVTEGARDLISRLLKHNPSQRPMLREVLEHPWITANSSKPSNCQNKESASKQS
RECORDED_METRIC: IC50 (µM)
Just the number in µM, nothing appended.

O=C(O)[C@H]1C2CCC(CC2)[C@@H]1Nc1nc(-c2c[nH]c3ncc(F)cc23)ncc1F [VX-787, reference compound]    1.11

Now examine the next entry.
IC50 recorded for this compound, `O=C(O)[C@H]1C2CCC(CC2)[C@@H]1Nc1nc(-c2n[nH]c3ncc(F)cc23)nc(C2CC2)c1F` , is 0.527
